Cited source: PubChem BioAssay (NCI)

# Protocol: NCI Yeast Anticancer Drug Screen. Data for the rad14 strain (AID 159);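 note: 0% = growth of vehicle-treated control cultures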
# Applied Conditions: S. cerevisiae rad14 strain growth inhibition; at 1.2 µM; stronger effect = higher value
The panel holds about 79,000 compounds, 15% with a hit somewhere; the sample as a whole holds those more often.
Kindly supply the reported growth inhibition values for the records listed here.
The reply should be a number in %, with the unit left off.

So what's the measured growth inhibition for this one? COC(=O)CCC(NC(=S)N/N=C(\C)c1ccccn1)C(=O)OC (stereo not given)
2

So what's the measured growth inhibition for this one? `c1ccc(-c2cnc3ccccc3c2)cc1`
-2

So what's the measured growth inhibition for this one? `CC(C)(CCCCC(C)(C)[N+](C)(C)C)[N+](C)(C)C`
-2

So what's the measured growth inhibition for this one? OC(CCNCc1ccccc1)c1ccc2ccccc2c1 (stereo not given)
32

So what's the measured growth inhibition for this one? `C(=Nc1ccc(-c2cc(-c3ccccc3)nc3ccc4ccccc4c23)cc1)c1ccccc1`
24

So what's the measured growth inhibition for this one? CCCCCCCCCCCC1N=C(N)NC(CCCO)=C1C(=O)OC (stereo not given)
72

So what's the measured growth inhibition for this one? COC(=O)C1=C(C(=O)OC)C(C(=O)OC)C(C(=O)OC)C(C(=O)OC)(C(=O)OC)C(C(=O)OC)=C1C(=O)OC (stereo not given)
-16

So what's the measured growth inhibition for this one? `O=Cc1ccc2c(c1)C(=O)c1ccccc1C2=O`
0

So what's the measured growth inhibition for this one? `CCCCCCCCCCCC1=NCCO1`
3

So what's the measured growth inhibition for this one? `C=C(C(=C)n1nnc(C(=O)OC)c1C(=O)OC)n1nnc(C(=O)OC)c1C(=O)OC`
1

So what's the measured growth inhibition for this one? Cc1ccc(NC(c2ccccc2)c2ccc3cccnc3c2O)cc1 (stereo not given)
0

So what's the measured growth inhibition for this one? `COc1cc2cc3c4cc(OC)c(OC)cc4cc[n+]3c(C)c2cc1OC`
-27

So what's the measured growth inhibition for this one? O=C1/C(=C/c2ccccc2)CCCC1CN1CCCCC1 (stereo not given)
48

So what's the measured growth inhibition for this one? `Cc1nc2ccccc2nc1NNc1ccccc1`
-3

So what's the measured growth inhibition for this one? `O=C1c2ccccc2C(=O)c2cc(CCl)ccc21`
2

So what's the measured growth inhibition for this one? `CNC(=O)OCc1c(COC(=O)NC)c(-c2ccc(Cl)c(Cl)c2)n2c1SCC2`
0

So what's the measured growth inhibition for this one? c1ccc2c(OCC3CO3)cccc2c1 (stereo not given)
-1

So what's the measured growth inhibition for this one? Cn1c(=O)c2c(nc(N)n2C2OC(CO)C(O)C2O)n(C)c1=O (stereo not given)
-4

So what's the measured growth inhibition for this one? `Cc1cc(=O)oc2c(C)c3occc(=O)c3cc12`
2

So what's the measured growth inhibition for this one? `COC(=O)/C=C(/C(=O)OC)C(Cl)(Cl)Cl`
6

So what's the measured growth inhibition for this one? `CN1CCN(C(=O)/C=C/C(=O)c2ccccc2)CC1`
9

So what's the measured growth inhibition for this one? `CC(=O)Nc1ccc2c(c1)Cc1cc(N=C3C=CC(=O)O3)ccc1-2`
12

So what's the measured growth inhibition for this one? `CCc1c(Cl)c(C)cc(O)c1Cl`
-8

So what's the measured growth inhibition for this one? `CN(C)N=Nc1ccccc1C(=O)NC#N`
-17

So what's the measured growth inhibition for this one? Cc1ccc2c(c1)C1(SC(C)C(=O)N1c1ccc(Cl)cc1)C(=O)N2 (stereo not given)
-3

So what's the measured growth inhibition for this one? `Cc1c2ccnc(C(=O)NCCN(C)C)c2cc2c3cc(O)ccc3n(C)c12`
1

So what's the measured growth inhibition for this one? `C[C](C)(C)[Ge]([O][Ge]([c]1ccccc1)[c]1ccccc1)([O][Ge]([c]1ccccc1)[c]1ccccc1)[C](C)(C)C`
-4

So what's the measured growth inhibition for this one? `COc1ccc(/C=C/C(=O)c2ccccc2)cc1OC`
3

So what's the measured growth inhibition for this one? `CCCC/C([O-])=C1/C(=O)N(c2ccccc2)N=C1C.CCCC/C([O-])=C1/C(=O)N(c2ccccc2)N=C1C.[Cu+2]`
0

So what's the measured growth inhibition for this one? `CCOC(=O)/C(=C\c1ccc(C#N)cc1)C(C)=O`
-4

So what's the measured growth inhibition for this one? C=C1CC(CCCl)(c2ccccc2)OC1=O (stereo not given)
-2

So what's the measured growth inhibition for this one? `O=C1Nc2ccc(Br)cc2C1=Nc1ccc2c(c1)OCO2`
-38

So what's the measured growth inhibition for this one? `N#CC(=Nc1ccccc1F)Nc1ccccc1F`
-5

So what's the measured growth inhibition for this one? `Cc1ccc(S/C(=C\C(=O)O)c2ccccc2)cc1`
-1

So what's the measured growth inhibition for this one? `CC(C)OC(=O)c1ccc(CCc2cc(O)c(Br)cc2O)cc1`
43

So what's the measured growth inhibition for this one? COc1cc(C2SCC(=O)N2c2ccc(-c3ccc(-n4c(-c5ccccc5)nc5ccccc5c4=O)cc3)cc2)ccc1O (stereo not given)
-1

So what's the measured growth inhibition for this one? `Cc1cccc(/C=N/NC(=S)N2CCCC2)n1`
2

So what's the measured growth inhibition for this one? `Cc1nc(Nc2ccccc2[N+](=O)[O-])sc1C(=O)CC(=O)C(=O)Nc1c(C(C)C)cccc1C(C)C`
0

So what's the measured growth inhibition for this one? CC(C)CCCC(C)C1CCC2C3CCC4=CC(=O)/C(=C\O)CC4(C)C3CCC12C (stereo not given)
1

So what's the measured growth inhibition for this one? `Cc1nc2ccc(N=NN(C)C)cc2[nH]1`
4

So what's the measured growth inhibition for this one? `C/C(=N\Nc1ccc([N+](=O)[O-])cc1[N+](=O)[O-])c1sc(-n2nc(-c3ccccc3)cc2-c2ccccc2)nc1C`
-7

So what's the measured growth inhibition for this one? `O=C1CC(=O)c2ccccc21`
0

So what's the measured growth inhibition for this one? `O=C1C(=O)c2ccccc2C(O)=C1C(C1=C(O)c2ccccc2C(=O)C1=O)c1ccc(Cl)cc1`
5

So what's the measured growth inhibition for this one? `Cc1ccc([N+]2=NC(c3ccccc3)=NN(c3ccccc3)C2)cc1`
5

So what's the measured growth inhibition for this one? `COc1cc(O)c2c(c1O)C(=O)c1cc(C)ncc1C2=O`
31

###

# Protocol: NCI Yeast Anticancer Drug Screen. Data for the bub3 strain (AID 167)
# Applied Conditions: S. cerevisiae bub3 mutant strain, at 100.0 µM
The panel holds about 79,000 compounds, 15% with a hit somewhere; the sample as a whole holds those more often. The source made the active and inactive calls. Cut-off read from the data, not from the text of the source: active = growth inhibition above about 70%; inactive = the rest.
Answer with one of the outcomes class 1 (active), class 0 (inactive)

For this molecule, state the assay outcome: CCCCCCC(O)CNCc1ccnc2ccc(OC)cc12 (stereo unspecified)
class 0

For this molecule, state the assay outcome: CCCCN(CCCC)CCC(O)c1cc2c(Cl)cc(Cl)cc2c2cc(C(F)(F)F)ccc12 (stereo unspecified)
class 1

For this molecule, state the assay outcome: `Nc1n[n+]([O-])c2ccc(Cl)cc2[n+]1[O-]`
class 1

For this molecule, state the assay outcome: `Nc1ccc(F)cc1S`
class 1

For this molecule, state the assay outcome: `CCOC(=O)c1[nH]cc(C)c1-c1cccn1-c1ccc(Cl)cc1[N+](=O)[O-]`
class 1

For this molecule, state the assay outcome: CC(C)C(C)/C=C\C(C)C1CCC2C3=CC=C4CC(O)CCC4(C)C3CCC21C (stereo unspecified)
class 0

For this molecule, state the assay outcome: `S=C1SCN(C2CCCCC2)CN1C1CCCCC1`
class 1

For this molecule, state the assay outcome: `Cc1nc2ccccc2nc1NNc1ccccc1`
class 0

For this molecule, state the assay outcome: `CCCC(=O)Oc1c(C)cc([N+](=O)[O-])cc1[N+](=O)[O-]`
class 1

For this molecule, state the assay outcome: CCOC(=O)C1N=[N+](c2ccccc2)C(=O)/C1=C\n1c(=S)[nH]c2ccc([N+](=O)[O-])cc21 (stereo unspecified)
class 0

For this molecule, state the assay outcome: CCCCC(CC)C(=O)[O][Sn]([CH2]CCC)([CH2]CCC)[O]C(=O)C(CC)CCCC (stereo unspecified)
class 1

For this molecule, state the assay outcome: `O=[N+]([O-])c1cccc2nc3ccccc3c(NCCCn3ccnc3[N+](=O)[O-])c12`
class 1

For this molecule, state the assay outcome: OC(/C=C/c1ccccc1)(Cc1cc(-c2ccccc2)n[nH]1)c1ccccc1 (stereo unspecified)
class 0

For this molecule, state the assay outcome: CN(C)c1ccc(C2CC(C)(O)Oc3cc4c(cc32)OCO4)cc1 (stereo unspecified)
class 0

For this molecule, state the assay outcome: COC(=O)NC1C(C)OC(OC2C/C=C(/C)C3C=CC4C(OC5CC(OC6CC(O)C(OC7CC(O)C(OC)C(C)O7)C(C)O6)C(O)C(C)O5)C(C)CC(C)C4C3(C)/C(O)=C3\C(=O)OC4(CC(C)C(CO)=CC4/C=C\2C)C3=O)CC1(C)[N+](=O)[O-] (stereo unspecified)
class 0

For this molecule, state the assay outcome: CCCCCCCCCCCCCCCCOP(=O)(O)OCC(N)C(=O)O (stereo unspecified)
class 1

For this molecule, state the assay outcome: Cc1c2cccc(Sc3ccccc3)c2c2c3c(cccc13)[S+](c1ccccc1)C2 (stereo unspecified)
class 1

For this molecule, state the assay outcome: COc1ccc(C(NCCNC(c2ccc(OC)c(OC)c2)c2cc3c(cc2O)OCO3)c2cc3c(cc2O)OCO3)cc1OC (stereo unspecified)
class 1

For this molecule, state the assay outcome: CN(C)CCOC1(Cc2ccc(F)cc2)CCC(C(C)(C)C)CC1 (stereo unspecified)
class 1

For this molecule, state the assay outcome: CCC(C)OC(=O)Nc1ccc(C)c(NC(=O)OC(C)CC)c1 (stereo unspecified)
class 1

For this molecule, state the assay outcome: `O=c1ccc2ccccc2c2ccccc12`
class 1

For this molecule, state the assay outcome: `CNCCCNc1c2ccccc2nc2cccc([N+](=O)[O-])c12`
class 1

For this molecule, state the assay outcome: `Oc1ccc(-c2nc(-c3ccc(F)cc3)c(-c3ccc4ccccc4n3)[nH]2)cc1`
class 1

For this molecule, state the assay outcome: N=C1N=Nc2nc(C3(c4nc5n(c4O)C(=N)N=N5)Cc4ccccc4C3=O)c(O)n21 (stereo unspecified)
class 1

For this molecule, state the assay outcome: `c1ccc2[nH]c(-c3cscn3)nc2c1`
class 1

For this molecule, state the assay outcome: `Cc1cc(N(CCOS(C)(=O)=O)CCOS(C)(=O)=O)ccc1C=Nc1ccc(-c2nc(Cc3ccccc3)sc2C)cc1`
class 1

For this molecule, state the assay outcome: `O=C1N=C2SC=C(NC(=S)Nc3ccccc3)N2NC12c1ccccc1-c1ccccc12`
class 1

For this molecule, state the assay outcome: `O=[N+]([O-])c1cc[n+]([O-])cc1`
class 1

For this molecule, state the assay outcome: `COc1ccc(/C=C2\NC(=S)N(/C=C3\C(=O)Oc4ccccc4C3=O)C2=O)cc1`
class 0

For this molecule, state the assay outcome: `O=C(Nc1ccc(Cl)cc1)Nc1nnc2nc(C(C(=O)c3cccc([N+](=O)[O-])c3Cl)c3nc4nnc(NC(=O)Nc5ccc(Cl)cc5)n4[nH]c3=O)c(=O)[nH]n12`
class 0

For this molecule, state the assay outcome: `CCOC(=O)C#Cc1ccc([N+](=O)[O-])cc1`
class 0

For this molecule, state the assay outcome: `C[C](C)(C)[Ge]([O][Ge]([c]1ccccc1)[c]1ccccc1)([O][Ge]([c]1ccccc1)[c]1ccccc1)[C](C)(C)C`
class 1

For this molecule, state the assay outcome: `Cc1cc(S(=O)(=O)Nc2nnc3cnc4ccccc4n23)c(S)cc1Cl`
class 0

For this molecule, state the assay outcome: `COC(=O)Oc1cc(Cl)c(Cl)cc1Cl`
class 0

For this molecule, state the assay outcome: `Cc1cccc2c1nc1ccc(Cl)cc1[n+]2C`
class 1

For this molecule, state the assay outcome: C=C1CC(CCCl)(c2ccccc2)OC1=O (stereo unspecified)
class 1

For this molecule, state the assay outcome: `O=c1[nH]c2ccc(Cl)cc2o1`
class 1

For this molecule, state the assay outcome: `O=C(NO)Nc1cc(Cl)cc(Cl)c1`
class 1

For this molecule, state the assay outcome: `O=[N+]([O-])c1ccc(N/N=C/Cc2ccccc2)c([N+](=O)[O-])c1`
class 0

For this molecule, state the assay outcome: `NC(=O)c1c([N+](=O)[O-])cc(C(F)(F)F)cc1[N+](=O)[O-]`
class 0

For this molecule, state the assay outcome: `CN(C)[C@@H]1C(=O)C(C(N)=O)=C(O)[C@@]2(O)C(=O)C3=C(O)c4c(O)cccc4C[C@H]3C[C@@H]12`
class 1
